Assignment: determine reported viability for the given molecules.
- methodSummary: SK-BR-3 cell growth inhibitors, pilot screen, 24 h, human (AID 572);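 further: compound exposure lasted between 18 and 24 h rather than exactly 24 h; 100% = carrier-treated control wells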
- appliedConditions: SK-BR-3 viability, CellTiter-Glo luminescence, at 10 µM, hits give low values
Write it as a number; the unit % goes unstated.

Fill in: viability of O=C(C1CCN(C2CC(=O)N(c3ccc(F)cc3)C2=O)CC1)N1CCOCC1 (stereo not drawn) is ___ 106

Consider next the molecule `Cc1cc(C(=O)Cn2cncn2)c(C)n1CCc1ccc(F)cc1` in the same way. 64

Same question for `CCCc1cc(=O)n2[nH]cnc2n1` please. 104

`COC(=O)c1cccc(NC(=O)CN2CCN(Cc3ccccc3)CC2)c1` , same question. 56

Similarly, `Cc1ccc(F)cc1NC(=O)c1cccc2nccnc12` ? 91.5

Now the molecule `O=C(CSc1nc2ccccc2[nH]1)c1ccc2c(c1)OCO2` 79

Another molecule: `CCOC(=O)C1=C(c2ccccc2)N2CCS(=O)(=O)N=C2S1` 92

Another: `O=S(=O)(Nc1nc2ccccc2nc1NCc1ccco1)c1cccs1` 91

Now consider `Cc1cc(NS(=O)(=O)Cc2ccccc2)cc(C)c1OCC(=O)N1CCOCC1` and answer again. 95

Let us now turn to `CCCCNC(=O)OCCNC(=O)NC` 98

Please answer likewise for `O=S1(=O)Nc2c(ccc3cccnc23)-c2ccccc21` 122

One more molecule: N#C/C(C(=O)NCc1ccco1)=C1/SC(Cc2ccc(F)cc2)C(=O)N1c1ccccc1 (stereo not drawn) 112

Quick one: `O=C1c2ccccc2C(=O)N1c1cccc(-c2nc3ccccc3o2)c1` 114

Now consider CC1Cc2ccccc2N1CC(=O)NC(=O)NCc1ccco1 (stereo not drawn) . 85

Also check `O=C(Nc1cccc2ccccc12)N1CCN(c2ccccc2)CC1` 89

Now give it for `CNC(=O)c1ccc2nc(NC(C)=O)sc2c1` too. 110

Follow-up entry: `O=C(CC(CC(=O)c1ccccc1)C(=O)O)c1ccccc1` 89

Try this molecule too: `CSc1nc(N2CCOCC2)c2c(c1C#N)CCCCC2` 112

CCOC(=O)N1CCC(NC(=O)Cn2cc3c(n2)CCC(C)C3)CC1 (stereo not drawn) ? 128

How about `CCOC(=O)c1nnc2cc(-c3ccc(Br)cc3)nn2c1C` ? 76.5

// next record `O=S(=O)(c1ccc(Oc2ccc(-c3nnco3)cc2)nc1)N1CCC(Cc2ccccc2)CC1` 109

Try this molecule next: `COc1cc(C)c(Br)cc1S(=O)(=O)N1CCOCC1` 84

What would you report for `CN(C)Cc1cn(CCC(=O)O)c2ccccc12` ? 96

Subsequent entry: Cc1nnc(NC(=O)C2CCCO2)s1 (stereo not drawn) 90

Request: `Cc1cc(C)cc(NC(=O)c2nnn(Cc3cc(C)ccc3C)c2N)c1` 111

Try this molecule too: `Brc1c(NC2=NCCN2)ccc2nccnc12` 105

Could you do the same for `CN(C)c1nc(OCCOC(=O)Nc2ccc(Cl)cc2Cl)nc(N(C)C)n1` , please? 70

Please do the same for CC1CC(C)CN(CC(=O)Nc2ccc(S(N)(=O)=O)cc2)C1 (stereo not drawn) as well. 96

Next molecule up: `CC(=O)c1c(O)cc(C)n(Nc2nc(C)cc(C)n2)c1=O` 91

// next record `CCOC(=O)Cc1nnc(Nc2cccc(O)c2)c2ccccc12` 98

And for `Cc1cc(NC(=O)CSc2nc(C3CCCCC3)nc3ccccc23)no1` ? 101

What do we get for CCOC(=O)c1ccc(N2C(=O)CC(Sc3nnc(C)s3)C2=O)cc1 (stereo not drawn) ? 103

Further, for O=C(C1CCCO1)N1CCN(C(c2ccccc2)c2ccccc2)CC1 (stereo not drawn) ? 98.5

Entry `CCCc1c(OCCCCc2nn[nH]n2)ccc(C(C)=O)c1O` please 77

Also CCOC(=O)CSC1=C(C#N)C(c2ccc3c(c2)OCO3)CC(=O)N1 (stereo not drawn) ? 90

What do we get for `Cc1cc2c(cc(C(=O)OCC(=O)NCc3cccs3)n2C(C)C)o1` ? 83

Then this molecule: CN(C)CC(O)COc1ccc(-c2ccc(C#N)cc2)cc1 (stereo not drawn) 79.5

Next: `O=C(CN1CCCN(S(=O)(=O)c2ccc(F)cc2)CC1)Nc1ccccc1Br` 84

Lookup `CCn1c(CSc2nnc(-c3cccnc3)n2-c2ccccc2C)nc2cc(C(=O)O)ccc21` 95.5

# repeat for `CCCCOC(=O)Cn1c(=N)n(CCN2CCOCC2)c2ccccc21` 77

Next: Cc1ccc(CC2SC(=O)NC2=O)cc1Cl (stereo not drawn) 107

Would you kindly repeat that for `O=C(O)c1ccc(COc2c(F)c(F)c(F)c(F)c2F)o1` ? 78

Now this one: `CN(CCNC(=O)c1ccc(N2CCCC2=O)cc1)CCc1ccccc1` 72

Quick one: `CCOc1ccc2c(c1)n(CO)c(=S)n2CO` 107

Now try `CCOc1ccccc1-c1nc(-c2ccc(C)nc2OC)no1` . 123

Another molecule to look at: `CCOC(=O)CSc1nc2ccccc2c(=O)n1NC(=O)c1ccccc1` 120

Now consider `CCCCC(=O)Nc1c(O)c2ccccc2[nH]c1=O` . 95.5

And for `Cc1cc(=O)n(CCO)c(O)c1C#N` ? 81.5

----------
- methodSummary: growth suppression of yeast trafficking mutant, preliminary HTS, modulators of trafficking downstream of Golgi apparatus project, 1536-format plate, OD 615 nm (AID 637)
- appliedConditions: yeast transport mutant growth, absorbance 615 nm, 18 h; hits give high values
measure: inhibition (%)
Note: unit % is implicit; provide only the numeric part.

Reported inhibition, compound CC(OC1=CC(=O)CCC1)C(=O)c1ccccc1 (stereo unspecified) : ____ -0.48

Then this compound: `CCN(CC)c1ccc(C(=O)n2cnc3ccccc32)cc1` -2

Now try `CC(=O)Nc1ccc(S(=O)(=O)NCc2csc(-c3cccnc3)n2)cc1` . 1.8

What about `COc1ccc(-c2noc(CCCOc3ccccc3)n2)cc1OC` ? 4.91

Continue with COc1ccc(-n2nc(C(=O)NCC(=O)NCC3CCCO3)c3ccccc3c2=O)cc1 (stereo unspecified) 1.15

Could you do the same for `Nc1nnc(Cc2ccc(Cl)cc2)s1` , please? 3.49

Now the compound COc1ccc(Cn2nnnc2C(c2ccncc2)N2CCOCC2)cc1 (stereo unspecified) 0.95

Another compound to look at: `CCOC(=O)CSc1nnc(NCC(=O)OC(C)C)c(=O)[nH]1` -3.61

Request: `N#Cc1cc2c(nc1SCC(=O)Nc1sc3c(c1C#N)CCC3)CCCCC2` -8.91

Similarly, `COc1ccc(S(=O)(=O)N(CCN2CCOCC2)Cc2cc(OC)ccc2OC)cc1` ? -5.08

Proceed to `COc1ccc(N2C(=O)C(Cl)=C(N3CCCC3)C2=O)cc1` -6.18

Consider next the compound `O=C(CN(C1CCCCC1)S(=O)(=O)c1ccccc1)NCc1cccnc1` in the same way. -0.55

`CCOC(=O)c1ccc(NC(=O)N2CCN(Cc3cccc(F)c3)CC2)cc1` , same question. 0.91

Record: `COc1cccc(/C=N/n2c(-c3ccco3)nc3ccccc3c2=O)c1` 2.36

Ok, now `ON=C1/C(=N\O)CC2(C/C1=N/O)OCCO2` -2.1

Next: Cc1nc2ncnn2c(N2CCC(C(=O)NCC3CCCO3)CC2)c1Cc1ccccc1 (stereo unspecified) -4.55

Please do the same for `CC(=O)c1ccccc1Oc1nc(CN2CCOCC2)nc2scc(-c3cccs3)c12` as well. 2.46

Try `Cc1cccc(NC(=O)CC2CCC2)c1` next. 4.55

What about this compound? COc1cc(C2C(C#N)=C(C)NC3=C2C(=O)CC(C)(C)C3)ccc1O (stereo unspecified) -7.46

// next record CCOC(=O)C1=C(N)OC2=C(C(=O)CC(C)(C)C2)C1c1ccoc1 (stereo unspecified) -8.33

And what about the compound `O=C(CSc1nnc(Cc2ccccc2)n1-c1cccc(Cl)c1)N1CCOCC1` ? -7.64

----------
- methodSummary: reversal of MRP1-mediated doxorubicin resistance, pilot screen, H69AR cells, doxorubicin co-treatment (AID 601)
- appliedConditions: H69AR cells + 2 uM doxorubicin, CellTiter-Glo, 72 h; at 10 µM; hits give high values
measure: differential viability (reversal) (%)
Answer in %, number only, no unit symbol.

What differential viability (reversal) value was documented for this molecule, `CC1(C)NC(=O)N(CCOc2cccc(Cl)c2Cl)C1=O` ? 14.6

Lookup `Cc1coc(NC(=O)CSc2nc(-c3ccncc3)cc(C(F)(F)F)c2C#N)n1` 1.41

Let us now turn to `CC(=O)CCc1ccc(OCCCCn2cncn2)cc1` 3.28

Note, next up: `COc1cc(SC)ccc1C(=O)Nc1ccccc1C#N` -25.8

Same question for CCC1CCc2c(sc3ncnc(N4CCOCC4)c23)C1 (stereo unspecified) please. -14.3

Same thing, different molecule: O=C(c1cnn2c1NC(c1ccco1)CC2C(F)(F)F)N1CCN(c2cccc(Cl)c2)CC1 (stereo unspecified) -61.4

Quick one: `O=C(c1ccco1)N1CCN(c2nc(C(F)(F)F)nc3c2nnn3Cc2ccccc2)CC1` -2.53

Query `CCN(CC)c1ccc2c(c1)C(=O)N(C)C2=O` next 2.22

Ok, now `Cc1nc(SCC(=O)c2c[nH]c3ccccc23)n[nH]1` 14.5

Follow-up entry: `COc1c2occc2c(OC)c2c(=O)cc(C)oc12` -1.66

Proceed to `CCCNC(=O)N1CCN(S(=O)(=O)c2ccc(C)c(C)c2)CC1` -0.65

Could you do the same for c1ccc(-c2ccc(C(c3ccccc3)n3ccnc3)cc2)cc1 (stereo unspecified) , please? -2.76

Similarly, `Cc1ccccc1C(=O)NC1CCN(Cc2nnnn2Cc2ccccc2)CC1` ? 2.56

Entry `COc1ccccc1Nc1nc(N)nc(-c2cc3ccccc3o2)n1` please -26.4

Consider next the molecule `O=C(Nc1ccc(Br)c2cccnc12)c1ccc(Cn2cc(Cl)cn2)o1` in the same way. 9.23

Another molecule to look at: `COc1ccc(N(CC(=O)Nc2ccc(F)c(Cl)c2)S(=O)(=O)c2c(C)noc2C)cc1` -7.84

Another molecule to look at: `CC[C@H]1OC(=O)C[C@@H](O)[C@H](C)[C@@H](O[C@@H]2O[C@H](C)C[C@H](N(C)C)[C@H]2O)[C@@H](CC=O)C[C@@H](C)C(=O)C=C[C@]2(C)O[C@H]2[C@@H]1C` -6.67

What about this molecule? COC(=O)c1ccc(C2CC(=O)Nc3cc(OC)c(OC)c(OC)c32)cc1 (stereo unspecified) 11.6

Same again, this time with `CC(C)Oc1ccc2c(=O)c(-c3ccccc3)coc2c1` 6.81

What do we get for `CC1(C)CC(=O)C2=C(C1)Nc1ccccc1N=C2` ? -19.7

Moving on to the next molecule: COc1ccccc1CNC(=O)C(C)NS(=O)(=O)c1ccccc1 (stereo unspecified) -11

Can you check CCOC(=O)C1=C(CSc2nc(C)cc(C)c2C#N)OC(N)=C(C#N)C1c1cccs1 (stereo unspecified) next? 8.64

And then CCn1ncc(C2=NOC(C(=O)Nc3ccc4c(c3)OCO4)C2)c1C (stereo unspecified) , what is it? 0.945

// same read-out, input: `Cc1csc(NC(=O)Nc2cccc(Cl)c2)n1` 8.58

Next up: `COc1ccc(NC(=O)Nc2ccccc2C)c(OC)c1` 20.8

Next: `c1ccc(Cc2nn3c(Cn4cnc5ccccc54)nnc3s2)cc1` 3.46

Now consider `CCOC(=O)/C=C(\C)Sc1cc(=O)oc2ccccc12` . 2.37

Next: CC(COc1ccccc1)N(CCCl)Cc1ccccc1 (stereo unspecified) 9.34

Check `CSc1ccccc1NS(=O)(=O)c1ccccc1` too. 10.8

Please give the result for `C=C(c1ccc(O)cc1)c1ccc(O)cc1` too. -42.8

Now consider `COc1cccc(OCCSc2nnc3sc4ccccc4n23)c1` and answer again. -6.48

Same thing, different molecule: `CC(C)n1nc(C(=O)Nc2nc3ccc(S(C)(=O)=O)cc3s2)c2ccccc2c1=O` -4.21

What do you have for `COc1ccccc1-c1noc(-c2ccco2)n1` ? -2.78

Also, `Cc1cccc2cc(C#N)c(SCCN3CCCCC3)nc12` please. -10

// repeat for `Cc1ccc2[nH]c3c(=O)n(CCCN4CCN(C)CC4)cnc3c2c1` and report 2.28

Request: `Cc1ccc(NC(=O)COc2nc(C)cs2)cc1` 3.88

Also, `O=C(CN1C(=O)COc2ccccc21)N(Cc1cccnc1)Cc1ccccc1F` please. 8.57

Follow-up entry: `Nc1cccc(C(=O)O)c1` 7.12

Another: CCC(=O)Oc1ccc(C(CC)C(CC)c2ccc(OC(=O)CC)cc2)cc1 (stereo unspecified) -16.4

What about `Cc1ccc(-n2ncc3c(=O)n(CC(=O)N4CCCc5ccccc54)cnc32)cc1C` ? -10

// next record `COc1oc(-c2ccccc2)nc1C(F)(F)F` 9.45

Repeat with `CCCCOC(=O)c1cccc(NC(=O)CC)c1` 1.34

Field entry: CCCS(=O)(=O)N1CCCC(C(=O)NC(C)c2ccc3c(c2)OCCO3)C1 (stereo unspecified) 6.12

Try Cc1cc(NC(=O)CCC(=O)N(CC2CCCO2)C(C(=O)NC2CCCC2)c2ccccc2C)no1 (stereo unspecified) next. 13.5

Same question for CCCC1Cc2c(sc3ncnc(N)c23)CO1 (stereo unspecified) please. -10.3

Again, but for `Cc1ccc2nc(NC(=O)C3CCN(S(=O)(=O)c4cccc5nsnc45)CC3)sc2c1` -10.7
